# ASSAYED_SYSTEM: human FXR (Homo sapiens, UniProt Q96RI1)
# Construct: expressed in transfected cells
# EXPERIMENT: FXR reporter assay (cellular FXR activities)
# Type: cell-based
# APPLIED_CONDITIONS: read-out: Emax (%) (GW4064 Emax = 100%)
Structures can show the parent of a compound that is named as a salt.
VALUE_KIND: Emax (%)

CN(C(=O)OC(C)(C)C)c1cc(C#Cc2ccc(OCc3c(-c4c(Cl)cccc4Cl)noc3C3CC3)cc2Cl)cc(C(=O)O)c1 [Compound I-78]: 89
O=C(O)c1ccc(C#Cc2ccc(OCc3c(-c4c(Cl)cccc4Cl)noc3C3CC3)cc2Cl)cc1 [Compound I-16]: 91
Cc1nc2cc(C#Cc3ccc(OCc4c(-c5c(Cl)cccc5Cl)noc4C4CC4)cc3Cl)cc(C(=O)O)c2nc1C [Compound I-109]: 100
CC(C)(C)OC(=O)Nc1cc(C#Cc2ccc(OCc3c(-c4c(Cl)cccc4Cl)noc3C3CC3)cc2Cl)cc(C(=O)O)c1 [Compound I-77]: 100
O=C(O)c1cc(C#Cc2ccc(OCc3c(-c4c(Cl)cccc4Cl)noc3C3CC3)cc2Cl)ccc1Cl [Compound I-29]: 93
O=C(O)c1ccnc(C#Cc2ccc(OCc3c(-c4c(Cl)cccc4Cl)noc3C3CC3)cc2Cl)c1 [Compound I-18]: 87
O=C(O)c1cc(Cl)cc(C#Cc2ccc(OCc3c(-c4c(Cl)cccc4Cl)noc3C3CC3)cc2Cl)c1 [Compound I-27]: 91
O=C(O)c1ccc(Cl)c(C#Cc2ccc(OCc3c(-c4c(Cl)cccc4Cl)noc3C3CC3)cc2Cl)c1 [Compound I-28]: 91
CCc1cc(C#Cc2ccc(OCc3c(-c4c(Cl)cccc4Cl)noc3C3CC3)cc2Cl)cc(C(=O)O)c1 [Compound I-65]: 92
O=C(O)c1cccc(C#Cc2c(Cl)cc(OCc3c(-c4c(Cl)cccc4Cl)noc3C3CC3)cc2Cl)c1 [Compound I-34]: 100
O=C(O)c1cc(C#Cc2ccc(OCc3c(-c4c(Cl)cccc4Cl)noc3C3CC3)cc2Cl)cc(C(=O)O)c1 [Compound I-84]: 98
CC(C)c1cc(C#Cc2ccc(OCc3c(-c4c(Cl)cccc4Cl)noc3C3CC3)cc2Cl)cc(C(=O)O)c1 [Compound I-66]: 92
COC(Cn1ccc2c(C#Cc3ccc(OCc4c(-c5c(Cl)cccc5Cl)noc4C4CC4)cc3Cl)cc(C(=O)O)cc21)OC [Compound I-96]: 98
C#Cc1ccc(OCc2c(-c3c(Cl)cccc3Cl)noc2C2CC2)cc1Cl [Compound I-5]: 84
O=C(O)c1cc(C#Cc2ccc(OCc3c(-c4c(Cl)cccc4Cl)noc3C3CC3)cc2Cl)c2nc[nH]c2c1 [Compound I-90]: 75
O=C(O)c1cc(C#Cc2ccc(OCc3c(-c4c(Cl)cccc4Cl)noc3C3CC3)cc2Cl)cc2[nH]ccc12 [Compound I-101]: 97
O=C(O)c1ccc(C#Cc2ccc(OCc3c(-c4c(Cl)cccc4Cl)noc3C3CC3)cc2Cl)nc1 [Compound I-17]: 89
O=C(O)c1cc(C#Cc2ccc(OCc3c(-c4c(Cl)cccc4Cl)noc3C3CC3)cc2Cl)cc(NC2CCNCC2)c1 [Compound I-58, hydrochloride]: 75

---

Measured pEC50, listed per entry.
# ASSAYED_SYSTEM: UniProtKB Q96RI1
# Sequence (Q96RI1 1-486): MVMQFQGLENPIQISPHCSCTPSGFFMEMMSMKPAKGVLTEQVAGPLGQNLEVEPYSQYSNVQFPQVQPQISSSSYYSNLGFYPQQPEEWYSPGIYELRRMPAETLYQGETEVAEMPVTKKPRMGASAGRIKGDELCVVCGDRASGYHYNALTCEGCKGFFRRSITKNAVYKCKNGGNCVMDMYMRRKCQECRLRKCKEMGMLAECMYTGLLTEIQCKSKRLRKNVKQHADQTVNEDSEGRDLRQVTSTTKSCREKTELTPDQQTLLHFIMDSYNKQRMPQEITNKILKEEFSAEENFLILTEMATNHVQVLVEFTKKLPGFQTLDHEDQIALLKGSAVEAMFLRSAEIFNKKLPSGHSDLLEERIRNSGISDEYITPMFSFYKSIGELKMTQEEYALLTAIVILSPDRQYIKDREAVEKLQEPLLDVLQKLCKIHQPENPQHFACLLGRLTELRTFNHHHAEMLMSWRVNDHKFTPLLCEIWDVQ
# EXPERIMENT: FXR reporter assay (cellular FXR activities)
# APPLIED_CONDITIONS: FXR reporter cells, 24 hours incubation, luciferase; read-out: Reporter Cell EC50
pEC50: −log10 of the molar value.

Field: example entries. Status: answers known.
CC(C)(C)NCc1cc(C#Cc2ccc(OCc3c(-c4c(Cl)cccc4Cl)noc3C3CC3)cc2Cl)cc(C(=O)O)c1 [Compound I-48]: 6.00 to 6.70
O=C(Nc1cc(C#Cc2ccc(OCc3c(-c4c(Cl)cccc4Cl)noc3C3CC3)cc2Cl)cc(C(=O)O)c1)OCCO [Compound I-81]: 6.00 to 6.70
O=C(O)c1cc(C#Cc2ccc(OCc3c(-c4c(Cl)cccc4Cl)noc3C3CC3)cc2Cl)c2ccn(CCO)c2c1 [Compound I-97]: ≥ 7.70
CCNC(=O)Nc1cc(C#Cc2ccc(OCc3c(-c4c(Cl)cccc4Cl)noc3C3CC3)cc2Cl)cc(C(=O)O)c1 [Compound I-72]: 6.00 to 6.70
CCOC(=O)N(C)c1cc(C#Cc2ccc(OCc3c(-c4c(Cl)cccc4Cl)noc3C3CC3)cc2Cl)cc(C(=O)O)c1 [Compound I-75]: 7.22 to 7.70
O=C(O)c1cc(C#Cc2ccc(OCc3c(-c4c(Cl)cccc4Cl)noc3C3CC3)cc2Cl)cc2nc(CO)oc12 [Compound I-107]: < 6.00

response.value for O=C(O)c1cc(C#Cc2ccc(OCc3c(-c4c(Cl)cccc4Cl)noc3C3CC3)cc2Cl)cc(N2CCOC2=O)c1 [Compound I-83] (field: pEC50) = 7.22 to 7.70
